B1: library; numbered along this chain (parent)
chain: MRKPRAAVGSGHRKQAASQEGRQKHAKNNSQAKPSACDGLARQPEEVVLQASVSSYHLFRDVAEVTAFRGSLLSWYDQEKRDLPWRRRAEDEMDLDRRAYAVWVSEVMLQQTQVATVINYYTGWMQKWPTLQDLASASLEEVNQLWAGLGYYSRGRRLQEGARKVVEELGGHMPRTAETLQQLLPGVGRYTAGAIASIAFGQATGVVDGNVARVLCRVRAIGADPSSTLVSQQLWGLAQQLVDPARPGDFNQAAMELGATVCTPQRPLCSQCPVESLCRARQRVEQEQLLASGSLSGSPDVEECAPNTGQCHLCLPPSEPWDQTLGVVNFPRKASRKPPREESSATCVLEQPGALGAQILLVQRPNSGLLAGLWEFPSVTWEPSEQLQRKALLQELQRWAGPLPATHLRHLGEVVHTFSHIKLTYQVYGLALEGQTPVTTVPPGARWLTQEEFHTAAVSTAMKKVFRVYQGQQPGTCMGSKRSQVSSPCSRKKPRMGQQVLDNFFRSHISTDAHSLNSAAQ

- Variants of: B1
- PROTOCOL: 8OG:A repair function score (normalized; synonymous = 0, nonsense = -1) (normalized log-likelihood score); higher = more repair activity (WT-like);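 also: cells sorted at 72 h after reporter transfection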
- ASSAY CONTEXT: with 8OG:A DNA repair reporter (GFP) in HEK-293 MUTYH KO cells
Measured 8OG:A repair function score by item
RECORDED ENDPOINT: 8OG:A repair function score

>  <MUTATION ANNOTATION>
Q111F

>  <NUMERIC READOUT>
-1.08

$$$$
>  <MUTATION ANNOTATION>
K463G

>  <NUMERIC READOUT>
-0.303

$$$$
>  <MUTATION ANNOTATION>
R332Q

>  <NUMERIC READOUT>
-0.0904

$$$$
>  <MUTATION ANNOTATION>
V458W

>  <NUMERIC READOUT>
-0.709

$$$$
>  <MUTATION ANNOTATION>
H172F

>  <NUMERIC READOUT>
-0.0443

$$$$
>  <MUTATION ANNOTATION>
T324N

>  <NUMERIC READOUT>
-0.188

$$$$
>  <MUTATION ANNOTATION>
G471K

>  <NUMERIC READOUT>
0.0191

$$$$
>  <MUTATION ANNOTATION>
A177N

>  <NUMERIC READOUT>
-0.0568

$$$$
>  <MUTATION ANNOTATION>
W399C

>  <NUMERIC READOUT>
0.313

$$$$
>  <MUTATION ANNOTATION>
A6M

>  <NUMERIC READOUT>
-0.168

$$$$
>  <MUTATION ANNOTATION>
P437M

>  <NUMERIC READOUT>
-0.528

$$$$
